Binding of serum SARS-yellow to looped/cyclic peptides of protein X4 of SARS-CoV Urbani values, listed per item
- System: antibodies in sera from SARS patients (sera 1a, 1b, 2, 6, 37, 62, London, SARS-yellow, SARS-green)
- Type: binding, human
Answer using only a numeral; do not append any unit.

Field: example entries. Status: answers known.
The sequence identified as SPKLFIRQEEVQQEL registered its Binding of serum SARS-yellow to looped/cyclic peptides of protein X4 of SARS-CoV Urbani at 0.5

Binding of serum SARS-yellow to looped/cyclic peptides of protein X4 of SARS-CoV Urbani for DGTRHTYQLRARSVS is 0.7

Form field Binding of serum SARS-yellow to looped/cyclic peptides of protein X4 of SARS-CoV Urbani, entry QELYSPLFLIVAALV : 0.5

The recorded Binding of serum SARS-yellow to looped/cyclic peptides of protein X4 of SARS-CoV Urbani for entry VLLKEPCPSGTYEGN equals 0.4

More entries:
Record PCPSGTYEGNSPFHP , field Binding of serum SARS-yellow to looped/cyclic peptides of protein X4 of SARS-CoV Urbani: 0.4

Looking up CTSTHFAFACADGTR , I see its Binding of serum SARS-yellow to looped/cyclic peptides of protein X4 of SARS-CoV Urbani listed as 1.0

Binding of serum SARS-yellow to looped/cyclic peptides of protein X4 of SARS-CoV Urbani recorded for this sequence, RHTYQLRARSVSPKL , is 0.7

Documented Binding of serum SARS-yellow to looped/cyclic peptides of protein X4 of SARS-CoV Urbani of LTLIVFTSCELYHYQ : 0.7

Looking up KIILFLTLIVFTSCE , I found its Binding of serum SARS-yellow to looped/cyclic peptides of protein X4 of SARS-CoV Urbani recorded as 0.8

The sequence identified as VSPKLFIRQEEVQQE registered its Binding of serum SARS-yellow to looped/cyclic peptides of protein X4 of SARS-CoV Urbani at 0.5

Item: LRARSVSPKLFIRQE | Binding of serum SARS-yellow to looped/cyclic peptides of protein X4 of SARS-CoV Urbani: 0.7

Value of measured Binding of serum SARS-yellow to looped/cyclic peptides of protein X4 of SARS-CoV Urbani for the entry EPCPSGTYEGNSPFH : 0.5

Notebook: FAFACADGTRHTYQL , Binding of serum SARS-yellow to looped/cyclic peptides of protein X4 of SARS-CoV Urbani read as 0.4

====

- Test system: antibodies in sera from SARS patients (sera 1a, 1b, 2, 6, 37, 62, London, SARS-yellow, SARS-green)
- Format: binding, human
- Set-up: unit not given here
PROPERTY_LABEL: Binding of serum 6 to looped/cyclic peptides of protein N of SARS-CoV Urbani
# answer = number (no unit)

Examples with answers:
Binding of serum 6 to looped/cyclic peptides of protein N of SARS-CoV Urbani for SQASSRSSSRSRGNS is 0.2

The value of Binding of serum 6 to looped/cyclic peptides of protein N of SARS-CoV Urbani measured for the sequence GIVWVATEGALNTPK turned out to be 0.2

New cases:
Entry AQPLPQRQKKQPTVT ; Binding of serum 6 to looped/cyclic peptides of protein N of SARS-CoV Urbani = 0.1

The sequence identified as TVTKKSAAEASKKPR registered its Binding of serum 6 to looped/cyclic peptides of protein N of SARS-CoV Urbani at 0.1

Reported Binding of serum 6 to looped/cyclic peptides of protein N of SARS-CoV Urbani for SAAEASKKPRQKRTA was 0.1

sequence KEELRFPRGQGVPIN , Binding of serum 6 to looped/cyclic peptides of protein N of SARS-CoV Urbani observed: 0.4

Lab note: AFFGMSRIGMEVTPS gave Binding of serum 6 to looped/cyclic peptides of protein N of SARS-CoV Urbani of 0.2

Binding of serum 6 to looped/cyclic peptides of protein N of SARS-CoV Urbani for AQFAPSASAFFGMSR is 0.5
